Each item that follows carries a reported koff.
test_target: T1, human LAP-TGFB1 Fc fusion (human)
T1 construct: also called human LAP-TGFβ1-Fc; human LAP-TGFβ-Fc isoform 1
T1 sequence (chain, as listed by the source limits assumed): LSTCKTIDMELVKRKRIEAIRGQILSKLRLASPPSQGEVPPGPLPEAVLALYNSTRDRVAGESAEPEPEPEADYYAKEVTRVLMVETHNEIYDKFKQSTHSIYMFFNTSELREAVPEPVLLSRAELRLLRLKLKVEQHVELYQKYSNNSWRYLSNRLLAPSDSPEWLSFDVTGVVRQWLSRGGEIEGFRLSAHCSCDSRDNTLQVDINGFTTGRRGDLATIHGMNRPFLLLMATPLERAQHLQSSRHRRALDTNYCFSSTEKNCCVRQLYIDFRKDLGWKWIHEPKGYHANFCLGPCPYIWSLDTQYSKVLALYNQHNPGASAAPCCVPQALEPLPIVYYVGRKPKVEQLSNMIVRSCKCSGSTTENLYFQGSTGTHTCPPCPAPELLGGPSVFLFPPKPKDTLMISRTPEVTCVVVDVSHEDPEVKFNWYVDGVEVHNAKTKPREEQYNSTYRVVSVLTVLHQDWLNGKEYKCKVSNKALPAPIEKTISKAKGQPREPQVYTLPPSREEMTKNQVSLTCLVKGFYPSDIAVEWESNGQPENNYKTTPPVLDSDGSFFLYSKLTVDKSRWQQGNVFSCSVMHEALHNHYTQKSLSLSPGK
test_protocol: BLI off-rate screen
Procedure: The Fab mutants including a positive control, 20E6 Fab, and a negative control Fab (Molecular Innovations, catalog HU-FAB-4510) were diluted to 200 nM in assay buffer and loaded to FAB2G sensors for 180 seconds followed by a one-hour incubation at room temperature in assay buffer to equilibrate the tips. […]
Your answer should be a plain number; it is taken to be in s⁻¹.

>>> readout_value("VL R53E (31BIT) (Fab, V domains shown, Heavy chain: parental 20E6 Fab HC, implied) VH: EVQLVQSGAEVKKPGASVKVSCKASGYTFTSYWMHWVRQAPGQGLEWMGRIDPQSGGIKYAQKFQGRATLTVDTSTSTAYMELSRLRSDDTAVYYCARWDYGGYFDVWGQGTLVTVSS VL: DIQMTQSPSSLSASVGDRVTITCRASQDITNYLNWYQQKPGKAVKLLIYYTSELHSGVPSRFSGSGSGTDYTLTISSLQPEDFATYFCQQGDTLPWTFGQGTKLEIKR")
0.0286

Could you now consider this next binder?
Lookup: # lookup: koff of VL T30E (36BIT) (Fab, V domains shown, Heavy chain: parental 20E6 Fab HC, implied) VH: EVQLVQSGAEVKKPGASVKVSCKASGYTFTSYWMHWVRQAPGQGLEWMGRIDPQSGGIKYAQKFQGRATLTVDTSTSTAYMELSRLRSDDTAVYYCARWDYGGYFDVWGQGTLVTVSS VL: DIQMTQSPSSLSASVGDRVTITCRASQDIENYLNWYQQKPGKAVKLLIYYTSRLHSGVPSRFSGSGSGTDYTLTISSLQPEDFATYFCQQGDTLPWTFGQGTKLEIKR
Found: 0.0405

src = patent US20230272056A1
